- Test system: HCT-116
- ASSAY: NCI tumour cell line growth inhibition, 48 h
Calls of active or inactive are those of the source. No stated cut-off is given here; in the data, active = GI50 up to about 1.1 µM and inactive = higher.
The categories you may choose from are active, inactive

INSERT INTO results (molecule, class_label) VALUES
  ('CC(=O)Nc1ccc(Sc2nnc(NC(C)=O)s2)cc1', 'inactive');

[in] Which result was noted for this molecule in the test: CCOC(=O)C1(Cc2c[nH]c3ccccc23)C(O)CCCN1C(C)=O (stereo not given)
[out] inactive

[in] Next molecule up: CC(C)(C)N/N=C(\C(=O)Nc1cccc(Cl)c1)C1C(=O)Nc2ccccc2[S+]1[O-] (stereo not given)
[out] inactive

[in] How about "COc1ccc2nc3c([N+](=O)[O-])ccc(NCCCN(C)C)c3c(N)c2c1" ?
[out] active

[in] And what about the molecule "CC(C)c1nc2c(Cl)c3ncccc3cc2[nH]c1=O" ?
[out] inactive

[in] Similarly, Brc1ccc(C2C3CSc4ccccc4C3=NN2c2ccccc2)cc1 (stereo not given) ?
[out] inactive

[in] Also, "CCOC(=O)C(=O)Nc1ccc(Cl)cc1C" please.
[out] inactive

[in] Item: "O=C(/C=C/c1cccc2ccccc12)c1ccccc1"
[out] inactive

[in] How about this molecule: CCOC(=O)CC(NC(=O)c1nc[nH]c1/N=N/N(C)C)C(=O)OCC (stereo not given)
[out] inactive

[in] Now consider "O=C(O)CCCN1CCCCC1" .
[out] inactive

[in] Also need "CC(C)c1c(O)c(O)c2c(c1O)C(=O)C(O)=C1C(C)(C)CCC[C@@]12C" , thanks.
[out] inactive

[in] For "N#CCCN(CCC#N)c1ccc(/C=C2\SC(=S)NC2=O)cc1" then?
[out] inactive

[in] Cool, now "O=C1C=CC(=O)C(CNc2ccc(C(=O)OC34CC5CC(CC(C5)C3)C4)cc2)=C1"
[out] inactive

[in] Same question for O=C1CSC(c2cc3cc(Br)ccc3nc2Cl)N1c1ccc(F)c(Cl)c1 (stereo not given) please.
[out] inactive

[in] For "NC(=O)/N=C(\N)NC(=O)c1ccccc1" then?
[out] inactive

[in] Same read-out for CC[C@]1(Cc2ccc(OC)c(OC)c2)[C@@H]2C[C@@H](C3OCCO3)ON2O[C@H](OC2CCCC2(c2ccccc2)c2ccccc2)[C@@H]1OC(C)=O (stereo not given in full) ?
[out] inactive

[in] "Cc1ccc(NC(=O)CSC(N)=O)cc1C" ?
[out] inactive

[in] Now the molecule "CCOc1ccc(/N=C/C=C(\Cl)c2ccc3ccccc3c2)cc1"
[out] inactive

[in] What do you have for CC12CC(=O)C3C(C(=O)C1)C32C (stereo not given) ?
[out] inactive

[in] And the next one, "Cc1c(-c2ccccc2)c(C#N)c2nnn(-c3cccc(Cl)c3)c(=O)n12" ?
[out] inactive

* * *

- Tested on: OVCAR-8
- ASSAY: NCI tumour cell line growth inhibition, 48 h
The source made the active and inactive calls. Cut-off read from the data, not from the text of the source: active = GI50 up to about 1.1 µM and inactive = higher.
Reported values of GI50 for individual entries

# annotated cases, reported GI50 shown
INSERT INTO results (compound, result) VALUES
  ('CCN(CC)CC(O)c1ccc2ccc3ccccc3c2c1 (stereo not drawn)', '16.7 µM (inactive)'),
  ('C1=N\c2ccc(cc2)/N=C\c2ccccc2OCc2cccc(n2)COc2ccccc2/1', '> 100 µM (inactive)'),
  ('C[N+]1([O-])[C@H]2CC(OC(=O)[C@H](CO)c3ccccc3)C[C@H]1[C@H]1O[C@H]12 (stereo partly drawn)', '> 100 µM (inactive)'),
  ('O=C(/C=C/c1c(O)ccc2ccccc12)c1ccccc1Cl', '32 µM (inactive)'),
  ('C/C1=C/C2OC(=O)C3(C)C2C(CC2(C)OC1=CC2=O)OC3(O)C(C)C (stereo not drawn)', '29 µM (inactive)'),
  ('CCOc1c(OC)cc(C2c3cc4c(c(OCC)c3CC3COC(=O)C32)OCO4)cc1OC (stereo not drawn)', '2.11 µM (inactive)');

[in] What value of measured GI50 is listed for "c1ccc2c(CCNC3=NCCO3)cccc2c1" ?
[out] > 10 µM (inactive)

[in] Would you mind doing "O=C(NNC(=O)c1cc2ccccc2[nH]1)c1cc2ccccc2[nH]1" as well?
[out] > 100 µM (inactive)

[in] Try this compound too: "COc1cc2[nH]c(=O)[nH]c2c2c(C)c[nH]c12"
[out] > 100 µM (inactive)

[in] Next entry: "CC(C)(C)/N=C\N(C=C(c1ccccc1)c1ccccc1)C1CCCCC1"
[out] 91.8 µM (inactive)

[in] "COc1ccc(-n2c(CCC(=O)O)nc3c2C(=O)c2ccccc2C3=O)cc1" ?
[out] > 100 µM (inactive)

[in] One more compound: "O=C1OCC/C1=N/O"
[out] > 100 µM (inactive)

[in] And "COc1cc2c(cc1OC)[C@H](C)N1CCc3cc(OC)c(OC)cc3[C@@H]1C2" ?
[out] > 100 µM (inactive)

* * *

Reported GI50 values are given for each entry in this list.
- System: NCI/ADR-RES
- ASSAY: NCI tumour cell line growth inhibition, 48 h
Calls of active or inactive are those of the source. No stated cut-off is given here; in the data, active = GI50 up to about 1.1 µM and inactive = higher.

Previously resolved entries follow.
INSERT INTO results (compound, result) VALUES
  ('CN(C)c1ccc(/C=C/c2cc(-c3ccccc3)[n+](C)n2-c2ccccc2)cc1', '4.5 µM (inactive)'),
  ('O=C(O)C(/C=C/c1ccccc1)c1ccccc1 (stereo not drawn)', '> 100 µM (inactive)');

With those in mind, consider the next compound.
[in] Could you share what GI50 was measured for "CC(C)=CC[C@]12CCN[C@H]1N(S(=O)(=O)c1ccccc1)c1ccccc12" , tested on NCI/ADR-RES?
[out] 14.8 µM (inactive)

* * *

- Test system: UO-31
- ASSAY: NCI tumour cell line growth inhibition, 48 h
Calls of active or inactive are those of the source. No stated cut-off is given here; in the data, active = GI50 up to about 1.1 µM and inactive = higher.
Response enum: active, inactive

INSERT INTO results (molecule, class_label) VALUES
  ('c1ccc2c(CCNC3=NCCO3)cccc2c1', 'inactive');

[in] Could you please tell me the result logged for "O=C(O)CCCN1CCCCC1" in this assay?
[out] inactive

[in] Then COC1/C=C\C=C(/C)C(=O)Nc2cc3nc4ccc(Br)cc4oc-3c(c2=O)CC(C)CC(OC)C(O)C(C)/C=C(\C)C1OC(N)=O (centres undefined) ?
[out] active

[in] Another molecule: C/C=C(\N=C=S)C(=O)OC1C(COC(C)=O)OC([C@]2(O)CC(=O)C(N)=C(C(=O)O)C2=O)C(O)C1OC1CC(OC)C(O)([C@@H](C)OC(=O)[C@@H](C)CC)C(C)O1 (some centres undefined)
[out] inactive

[in] // same read-out, input: CC(C)(C)N/N=C(\C(=O)Nc1cccc(Cl)c1)C1C(=O)Nc2ccccc2[S+]1[O-] (centres undefined)
[out] inactive

[in] Likewise for CSC[S+]([O-])C[C@H](CO)NC(=O)/C=C/c1c(C)[nH]c(=O)[nH]c1=O (some centres undefined) ?
[out] inactive

* * *

- System: MOLT-4
- ASSAY: NCI tumour cell line growth inhibition, 48 h
Calls of active or inactive are those of the source. No stated cut-off is given here; in the data, active = GI50 up to about 1.1 µM and inactive = higher.
Recorded GI50 for the following compounds

Known results for compounds:
INSERT INTO results (compound, measurement_kind, result) VALUES
  ('CC1(C)O[C@@H](CCl)C[C@H](C#N)O1', 'GI50', '> 100 µM (inactive)'),
  ('CC(=O)O[C@H]1/C(=C/c2ccc(N(C)C)cc2)C[C@H]2[C@@H]3CC=C4C[C@@H](N5CCCC5)CC[C@]4(C)[C@H]3CC[C@]12C', 'GI50', '> 100 µM (inactive)');

Lab note: next compound to report on.
[in] Param item = CC(C)c1ccc2c(c1)[C@@]1(C)CC[C@H](C)C(C)(C)C1CC2 (stereo partly drawn) ; retrieve measured GI50.
[out] 37 µM (inactive)

* * *

- Tested on: HL-60
- ASSAY: NCI tumour cell line growth inhibition, 48 h
Active and inactive are the calls of the source. No stated cut-off is given here; in the data, active = GI50 up to about 1.1 µM and inactive = higher.
I would appreciate it if you answered using one of these outcomes: yes for active, no for inactive

Worked set:
INSERT INTO results (compound, measurement_target, class_label) VALUES
  ('O=c1n(-c2ccccc2)c(=O)n2n1C1C=CC2C2C(C1)C2(Cl)Cl (centres undefined)', 'HL-60', 'no'),
  ('COC(=O)C1(Cc2ccccc2)Cc2ccccc2C1', 'HL-60', 'no'),
  ('CS(=O)(=O)OCC1CCCCCCCCCCC12SCCCS2 (centres undefined)', 'HL-60', 'no'),
  ('CC1=NOC(=O)/C1=C/c1cccc2ccccc12', 'HL-60', 'no'),
  ('COC1/C=C\C=C(/C)C(=O)Nc2cc3nc4ccc(Br)cc4oc-3c(c2=O)CC(C)CC(OC)C(O)C(C)/C=C(\C)C1OC(N)=O (centres undefined)', 'HL-60', 'yes');

[in] Recorded test call requested for "N#C/C(=C\c1cc(OCc2ccccc2)c(OCc2ccccc2)cn1)C(N)=O"
[out] no

[in] Try the compound "[O-][n+]1c(-c2ccccc2)oc2ccccc21"
[out] no

[in] And then "CC1=C(C(=O)Nc2ccccc2)C(c2ccccc2)C(C(=O)Nc2ccccc2)=C(C)N1" , what is it?
[out] no

[in] Same question for "CN(C)CCNC(=O)c1cccc2[nH]c(-c3cccnc3)nc12" please.
[out] no

[in] // query: Brc1ccc(C2C3CSc4ccccc4C3=NN2c2ccccc2)cc1 (centres undefined)
[out] no

[in] Further, for "Cc1ccc(NC(=O)CSC(N)=O)cc1C" ?
[out] no

[in] Try "CCOc1ccc(/N=C/C=C(\Cl)c2ccc3ccccc3c2)cc1" next.
[out] no

[in] Could you do the same for "Cc1ccc(-c2c(C#N)c(S)n(NS(=O)(=O)c3ccc(C)cc3)c(=O)c2C#N)cc1" , please?
[out] no

[in] Same lookup for "Nc1ccc(Nc2c3ccccc3nc3ccccc23)cc1" , please.
[out] no
